What Absorbed dose (AD average) Thymus was measured for each of the following?
Assay details: Extrapolated human dosimetry (OLINDA/EXM, ICRP-89 phantoms)
Condition label: ICRP 89 Adult Female, extrapolated
Numbers only, in mGy/Mbq.

# Compound, Absorbed dose (AD average) Thymus [mGy/Mbq]
measured = [
    ("N#C[C@@H]1CC(F)(F)CN1C(=O)CNC(=O)c1ccnc2ccc(OCCCCNC(=O)CC[C@H](NC(=O)CCC(C(=O)O)N3CCN(CC(=O)[O-])CCN(CC(=O)[O-])CCN(CC(=O)[O-])CC3)C(=O)NCCCCOc3ccc4nccc(C(=O)NCC(=O)N5CC(F)(F)C[C@H]5C#N)c4c3)cc12.[161Tb+3] (stereo partly drawn) [[^161Tb]Tb-DOTAGA.Glu.(FAPI)2]", "4.16E-02"),
]

Take each entry in turn and give its Absorbed dose (AD average) Thymus.
1. N#C[C@@H]1CC(F)(F)CN1C(=O)CNC(=O)c1ccnc2ccc(OCCCCNC(=O)CC[C@H](NC(=O)CN3CCN(CC(=O)[O-])CCN(CC(=O)[O-])CCN(CC(=O)[O-])CC3)C(=O)NCCCCOc3ccc4nccc(C(=O)NCC(=O)N5CC(F)(F)C[C@H]5C#N)c4c3)cc12.[177Lu+3] [[^177Lu]Lu-DO3A.Glu.(FAPI)2]
2. N#C[C@@H]1CC(F)(F)CN1C(=O)CNC(=O)c1ccnc2ccc(OCCCCNC(=O)CC[C@H](NC(=O)CCC(C(=O)O)N3CCN(CC(=O)[O-])CCN(CC(=O)[O-])CCN(CC(=O)[O-])CC3)C(=O)NCCCCOc3ccc4nccc(C(=O)NCC(=O)N5CC(F)(F)C[C@H]5C#N)c4c3)cc12.[177Lu+3] (stereo partly drawn) [[^177Lu]Lu-DOTAGA.Glu.(FAPI)2]

Output:
["2.70E-02", "3.04E-02"]
